assay: Distribution coefficient of cyclosporins between lighter organic phase and heavier aqueous phase (n-heptane/acetone/water); assay type: physicochemical; settings: conc. in lighter phase / conc. in heavier aqueous phase at 40° C.; 75% n-heptane/25% acetone vs 50% acetone/50% water
Reported Distribution coefficient (to one decimal place) is given for each of the following molecules.
Quick one: just the number, no unit, thanks!

As a guide, the following entries are already answered.
>>> numeric_readout("C/C=C/C[C@@H](C)[C@@H](O)[C@H]1C(=O)N[C@@H](C(C)C)C(=O)N(C)CC(=O)N(C)[C@@H](CC(C)C)C(=O)N[C@@H](C(C)C)C(=O)N(C)[C@@H](CC(C)C)C(=O)N[C@@H](C)C(=O)N[C@H](C)C(=O)N(C)[C@@H](CC(C)C)C(=O)N(C)[C@@H](CC(C)C)C(=O)N(C)[C@@H](C(C)C)C(=O)N1C")
1.7
>>> numeric_readout("C/C=C/C[C@@H](C)[C@@H](O)[C@H]1C(=O)N[C@@H](CCC)C(=O)N(C)CC(=O)N(C)[C@@H](CC(C)C)C(=O)N[C@@H](C(C)C)C(=O)N(C)[C@@H](CC(C)C)C(=O)N[C@@H](C)C(=O)N[C@H](C)C(=O)N(C)[C@@H](CC(C)C)C(=O)N(C)[C@@H](CC(C)C)C(=O)N(C)[C@@H](C(C)C)C(=O)N1C")
1.3

Task: Give recorded Distribution coefficient (to one decimal place). C/C=C/C[C@@H](C)[C@@H](O)[C@H]1C(=O)N[C@@H](C)C(=O)N(C)CC(=O)N(C)[C@@H](CC(C)C)C(=O)N[C@@H](C(C)C)C(=O)N(C)[C@@H](CC(C)C)C(=O)N[C@@H](C)C(=O)N[C@H](C)C(=O)N(C)[C@@H](CC(C)C)C(=O)N(C)[C@@H](CC(C)C)C(=O)N(C)[C@@H](C(C)C)C(=O)N1C
Output: 0.4

====

experiment: Distribution coefficient of cyclosporins between lighter organic phase and heavier aqueous phase (n-heptane/acetone/water); assay type: physicochemical; details: conc. in lighter phase / conc. in heavier aqueous phase at 40° C.; 75% n-heptane/25% acetone vs 50% acetone/50% water
Attribute measured: Distribution coefficient (to one decimal place)
Quick one: just the number, no unit, thanks!

As a guide, the following entries are already answered.
>>> numeric_readout("C/C=C/C[C@@H](C)[C@@H](O)[C@H]1C(=O)N[C@@H]([C@@H](C)O)C(=O)N(C)CC(=O)N(C)[C@@H](CC(C)C)C(=O)N[C@@H](C(C)C)C(=O)N(C)[C@@H](CC(C)C)C(=O)N[C@@H](C)C(=O)N[C@H](C)C(=O)N(C)[C@@H](CC(C)C)C(=O)N(C)[C@@H](CC(C)C)C(=O)N(C)[C@@H](C(C)C)C(=O)N1C")
0.3
>>> numeric_readout("C/C=C/C[C@@H](C)[C@@H](O)[C@@H]1NC(=O)[C@H](C(C)C)N(C)C(=O)[C@H](CC(C)C)N(C)C(=O)[C@H](CC(C)C)N(C)C(=O)[C@@H](C)NC(=O)[C@H](C)NC(=O)[C@H](CC(C)C)N(C)C(=O)[C@H](C(C)C)NC(=O)[C@H](CC(C)C)N(C)C(=O)CN(C)C(=O)[C@H](CC)NC1=O")
0.5
>>> numeric_readout("C/C=C/C[C@@H](C)[C@@H](O)[C@H]1C(=O)N[C@@H](CC)C(=O)N(C)CC(=O)N(C)[C@@H](CC(C)C)C(=O)N[C@@H](C(C)C)C(=O)N[C@@H](CC(C)C)C(=O)N[C@@H](C)C(=O)N[C@H](C)C(=O)N(C)[C@@H](CC(C)C)C(=O)N(C)[C@@H](CC(C)C)C(=O)N(C)[C@@H](C(C)C)C(=O)N1C")
0.6

Task: Give recorded Distribution coefficient (to one decimal place). CCCC[C@@H](C)[C@@H](O)[C@H]1C(=O)N[C@@H](CC)C(=O)N(C)CC(=O)N(C)[C@@H](CC(C)C)C(=O)N[C@@H](C(C)C)C(=O)N(C)[C@@H](CC(C)C)C(=O)N[C@@H](C)C(=O)N[C@H](C)C(=O)N(C)[C@@H](CC(C)C)C(=O)N(C)[C@@H](CC(C)C)C(=O)N(C)[C@@H](C(C)C)C(=O)N1C [Cyclosporin Dihydro-A, dihydro-Cyclosporin A]
Output: 1.0
